# experiment.notes: Viability qHTS for spleen associated tyrosine kinase inhibitor (SYKi) naive MV4-11 cells (AID 1963823); further: nearly all actives have a fitted effect of over 40% in size
# experimental.setup: MV4-11 AML viability, CellTiter-Glo luminescence, 72 h; series mostly up to 45 µM
Inconclusive results are not listed. Active and inactive are the calls of the source. The call rests on the fitted dose curve; in most records, active means well fitted cell-killing curve with a large enough effect; inconclusive means small, poorly fitted or top-dose-only effect, or effect the other way; inactive means no such curve, though single readings can be large or run the other way.
Possible outcomes: active, inactive

[[record]]
compound = "COc1cccc(Nc2ncnn3ccc(CN4CC[C@@H](N)[C@H](O)C4)c23)c1"
assigned_class = "active"

[[record]]
compound = "CC1=C[C@H]2[C@@H](CC1=O)[C@H](C)C[C@H](O)[C@H]2C(C)C"
assigned_class = "inactive"

[[record]]
compound = "CCN(c1ccccc1)c1cc(NC)[n+](C)c(C)n1"
assigned_class = "active"

[[record]]
compound = "CCN1CCN(Cc2ccc(C(=O)Nc3ccc(C)c(Oc4ccc5c(c4)CC(=O)N5)c3)cc2C(F)(F)F)CC1"
assigned_class = "active"

[[record]]
compound = "O=C(NC1CCN(CC(F)(F)F)CC1)c1ccc(-c2cccc(F)c2)nc1"
assigned_class = "inactive"

[[record]]
compound = "COC1=CC(=O)CC(C)C12Oc1cc(OC)cc(O)c1C2=O (centres undefined)"
assigned_class = "inactive"

[[record]]
compound = "O=C(Nc1cc(-c2ccccc2)nn1-c1ccccc1)c1ccc([N+](=O)[O-])cc1"
assigned_class = "inactive"

[[record]]
compound = "NC(=O)N1CCC(CC(=O)N2CCC([C@H]3c4ncc(Br)cc4CCc4cc(Cl)cc(Br)c43)CC2)CC1"
assigned_class = "active"

[[record]]
compound = "Cc1ccc(Cc2c(C)nc3nc(SCC(=O)NCCN4CCNCC4)nn3c2C)cc1"
assigned_class = "inactive"

[[record]]
compound = "CC1(O)CC(O)C2C(C(=O)O)=COC(OC3OC(CO)C(O)C(O)C3OC(=O)/C=C/c3ccc(O)cc3)C21 (centres undefined)"
assigned_class = "inactive"

[[record]]
compound = "OC[C@H]1O[C@@H](OCCc2ccc(O)cc2)[C@H](O)[C@@H](O)[C@H]1O"
assigned_class = "inactive"

[[record]]
compound = "CCCn1c(=O)c2[nH]c(-c3ccc(OCC(=O)O)cc3)nc2n(CCC)c1=O"
assigned_class = "inactive"

[[record]]
compound = "COC(=O)C1=C(C)NC(C)=C(C(=O)OCCN2CCN(C(c3ccccc3)c3ccccc3)CC2)C1c1cccc([N+](=O)[O-])c1 (centres undefined)"
assigned_class = "active"

[[record]]
compound = "CCCCCCCCCCCCCC(=O)N[C@H](CO)[C@H](O)c1ccc([N+](=O)[O-])cc1"
assigned_class = "active"

[[record]]
compound = "C=C1CCC2[C@](C)(CCC[C@@]2(C)C=O)[C@H]1CC/C(C)=C/CO (some centres undefined)"
assigned_class = "active"

[[record]]
compound = "C=CC(=O)N1CC/C(=C\\c2ccc(F)c([N+](=O)[O-])c2)C(=O)/C(=C/c2ccc(F)c([N+](=O)[O-])c2)C1"
assigned_class = "active"

[[record]]
compound = "O=C(NCCCNc1nc(Nc2cccc(CN3CCOCC3)c2)ncc1C1CC1)C1CCC1"
assigned_class = "active"

[[record]]
compound = "COC(=O)CC1(O)C(=O)Nc2ccccc21 (centres undefined)"
assigned_class = "inactive"

[[record]]
compound = "CCC(C(=O)NC(=O)NC(C)=O)c1ccccc1 (centres undefined)"
assigned_class = "inactive"

